# Species on record: Rattus norvegicus
# Test name: Effective dose required to produce an increase in dP/dt5 by 1500 mmHg/s in rats
# Assay type: functional

- Molecule: "Cn1c(-c2ccncc2)nc2cc3c(cc21)NC(=O)C3(C)C"
  ED1.5: ">3 mg/kg"
- Molecule: "COc1ccccc1-c1nc2cc3c(cc2[nH]1)C(C)(C)C(=O)N3"
  ED1.5: ">3 mg/kg"
- Molecule: "C=C(C)c1nc2cc3c(cc2[nH]1)C(C)(C)C(=O)N3"
  ED1.5: ">3 mg/kg"
- Molecule: "CCCc1nc2cc3nc(O)oc3cc2[nH]1"
  ED1.5: ">3 mg/kg"
- Molecule: "CC1(C)C(=O)Nc2cc3[nH]c(N)nc3cc21"
  ED1.5: ">3 mg/kg"
- Molecule: "C/C=C/c1nc2cc3c(cc2[nH]1)C(C)(C)C(=O)N3"
  ED1.5: ">3 mg/kg"
- Molecule: "CC1(C)C(=O)Nc2cc3[nH]c(-c4ccc(O)cc4)nc3cc21"
  ED1.5: ">3 mg/kg"
- Molecule: "COc1ccc(-c2nc3cc4c(cc3[nH]2)C(C)(C)C(=O)N4)cc1"
  ED1.5: ">3 mg/kg"
- Molecule: "CC1(C)C(=O)Nc2cc3[nH]c(C4CCCCC4)nc3cc21"
  ED1.5: ">3 mg/kg"
- Molecule: "CN1C(=O)C(C)(C)c2cc3[nH]c(-c4ccncc4)nc3cc21"
  ED1.5: ">3 mg/kg"
- Molecule: "Cn1c(O)nc2cc3[nH]c(O)nc3cc21"
  ED1.5: ">3 mg/kg"
- Molecule: "CN(C)c1ccc(-c2nc3cc4c(cc3[nH]2)C(C)(C)C(=O)N4)cc1"
  ED1.5: ">3 mg/kg"
- Molecule: "CC1(C)C(=O)Nc2cc3[nH]c(-c4cnc5ccccc5c4)nc3cc21"
  ED1.5: ">3 mg/kg"
- Molecule: "CN1C(=O)C(C)(C)c2cc3nc(-c4ccncc4)n(C)c3cc21"
  ED1.5: ">3 mg/kg"
- Molecule: "CC1(C)C(=O)Nc2cc3[nH]c(-c4ccc(-n5ccnc5)cc4)cc3cc21"
  ED1.5: ">3 mg/kg"
- Molecule: "CC1(C)C(=O)Nc2cc3[nH]c(-c4cc5ccccc5[nH]4)nc3cc21"
  ED1.5: ">3 mg/kg"
- Molecule: "CC1(C)C(=O)Nc2cc3[nH]c(-c4cncnc4)nc3cc21"
  ED1.5: "0.045 mg/kg"
- Molecule: "CC1(C)C(=O)Nc2cc3[nH]c(-c4ccccc4)nc3cc21"
  ED1.5: "0.37 mg/kg"
- Molecule: "COc1ccc(-c2nc3cc(C4=NNC(=O)CC4C)ccc3[nH]2)cc1 (stereo unspecified) [PIMOBENDAN]"
  ED1.5: "1.3 mg/kg"
- Molecule: "COc1cc([S+](C)[O-])ccc1-c1nc2cc3c(cc2[nH]1)C(C)(C)C(=O)N3 (stereo unspecified)"
  ED1.5: ">3 mg/kg"
- Molecule: "CC1(C)C(=O)Nc2cc3[nH]c(-c4ccco4)nc3cc21"
  ED1.5: "0.07 mg/kg"
- Molecule: "Oc1nc2cc3[nH]c(-c4ccncc4)nc3cc2[nH]1"
  ED1.5: ">3 mg/kg"
- Molecule: "Oc1nc2cc3nc(-c4ccncc4)[nH]c3cc2o1"
  ED1.5: "0.52 mg/kg"
- Molecule: "CC1(C)C(=O)Nc2cc3[nH]c(-c4ccncc4)nc3cc21 [ADIBENDAN]"
  ED1.5: "0.01 mg/kg"
- Molecule: "Cc1nc2cc3nc(O)oc3cc2[nH]1"
  ED1.5: ">3 mg/kg"
- Molecule: "CC1(C)C(=O)Nc2cc3nc(O)oc3cc21"
  ED1.5: ">3 mg/kg"
- Molecule: "CC1(C)C(=O)Nc2cc3[nH]c(S)nc3cc21"
  ED1.5: "0.55 mg/kg"
- Molecule: "CC1(C)C(=O)Nc2cc3[nH]nnc3cc21"
  ED1.5: "0.18 mg/kg"
- Molecule: "Cc1cc2cc3c(cc2[nH]1)NC(=O)C3(C)C"
  ED1.5: ">3 mg/kg"
- Molecule: "CC1(C)C(=O)Nc2cc3[nH]c(O)cc3cc21"
  ED1.5: "0.11 mg/kg"
- Molecule: "CCCc1nc2cc3c(cc2[nH]1)C(C)(C)C(=O)N3"
  ED1.5: "0.17 mg/kg"
